- subject of test: Insulin (Homo sapiens, UniProt P01308;P01308 P01308:25-54,P01308:90-110)
- Sequence (P01308 25-54, chain 1 of 2): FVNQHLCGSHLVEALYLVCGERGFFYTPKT
- Sequence (P01308 90-110, chain 2 of 2): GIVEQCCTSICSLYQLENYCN
- experimental details: graphene FET, PBS pH 7.4, Hill-Langmuir fit of Dirac voltage shift
- measurement setup: G4
pKd: −log10 of the molar value.
observed property: pKd

{"binder": "GGTGGTGGGGGGGGTTGGTAGGGTGTCTTC (ssDNA, 5'-NH2 (coupled to PASE on graphene)) [IGA3 insulin aptamer]", "observed property": "pKd", "measurement": 7.46}
